These entries and their values trace back to patent US20180116220A1.

# assaySummary: LogP by HPLC on reversed phase columns (EEC directive 79/831 Annex V.A8)
# Format: physicochemical
# conditionsUsed: [b] LC-UV, neutral range, 0.001 molar ammonium acetate solution in water and acetonitrile as eluent
measurementLabel: LogP

Query: Fill blank: measured LogP of the compound Cc1cc(Br)ccc1OC1(C(O)(Cn2cncn2)c2ccc(F)cc2F)CC1 (racemic) is ____.
Response: 4.08^[b]

Query: Entry under review: OC(Cn1cncn1)(c1ccc(F)cc1F)C1(Oc2ccc(Br)cc2)CC1 (racemic) . Reported LogP?
Response: 3.59^[b]

Query: Fill blank: measured LogP of the compound OC(Cn1cncn1)(c1ccc(F)cc1F)C1(Oc2ccc(Cl)cc2F)CC1 (racemic) is ____.
Response: 3.50^[b]

Query: LogP for OC(Cn1cncn1)(c1ccc(F)cc1F)C1(Oc2ccc(OC(F)(F)F)cc2)CC1 (racemic) ?
Response: 3.77^[b]

Query: Can you look up the measured LogP of OC(Cn1cncn1)(c1ccc(F)cc1F)C1(Oc2ccccc2Br)CC1 (racemic) for me?
Response: 3.43^[b]

Query: Param item = OC(Cn1cncn1)(c1ccc(F)cc1F)C1(Oc2ccc(SC(F)(F)F)cc2)CC1 (racemic) ; retrieve measured LogP.
Response: 4.13^[b]

Query: Please give the measured LogP for this compound: CC(=O)OC(Cn1cncn1)(c1ccc(F)cc1F)C1(Oc2ccc(Cl)cc2)CC1 (racemic)
Response: 3.47^[b]

Query: Requested field: LogP. Item: OC(Cn1cncn1)(c1ccc(F)cc1F)C1(Oc2cccc(Br)c2)CC1 (racemic)
Response: 3.54^[b]
